Data origin: ChEMBL document CHEMBL1143492

Assay: Area under curve was determined after intravenous administration (29.7 umol/kg) in rat
Format: ADME
Settings: in vivo
experimental-readout: AUC
The reply should consist of the numeric value with the unit placed after it.

The measured AUC associated with CCC1(c2cccc(O)c2)CCCCN(C)C1 (stereo unspecified) reads 1990 ng·h/mL
